test system: G-clamp-N3 (biotin conjugate); test: pull-down binding Z-score (relative to library population); higher = stronger binding; conditions: RNA library: Library-1 (pre-miRNA loops + repeats)
In this section we review reported pull-down binding Z-score values for a set of sequences.
Readout Type: pull-down binding Z-score

INSERT INTO results (sequence_input, readout_number) VALUES
  ('GAUGCUGUAUAUCUGAAAGGUAC [hsa-mir-101-2]', -0.649),
  ('CAGAGCUGCAGCUGCUCCACCCUG [hsa-mir-6730]', -0.915),
  ('GGAAACUGAGACUUUGUAACUAUGUCUCAGUCUCA [hsa-mir-452]', -0.74),
  ('UUUGCCGUCGAAAAUAAUGGCAAA [hsa-mir-548am]', -0.204),
  ('GUAUACUGAGCUUAUGUAUGCAUCUGCAUAC [hsa-mir-5591]', 0.344),
  ('AGUUCGCUUUUAUUAAUGACGAAUA [hsa-mir-410]', -0.994),
  ('CUUCAGAGCAGGGUUUGGUCUGUGCUUCUCUG [hsa-mir-6719]', 0.184),
  ('AUAAUACGGAUUACGUUGUUA [hsa-mir-137]', -1.89),
  ('UGAGUGCUAUUUCAGUGCAACA [hsa-mir-362]', -0.0128),
  ('UGACUACUUCGAAAAUGGGAAGUAGACA [hsa-mir-7849]', 3.04),
  ('CUGUCUGUUGUCUAAGAAAAGAUCG [hsa-mir-517c_517b]', 0.565),
  ('UAGUGGAAAGAGCACUG [hsa-mir-378b]', 1.15),
  ('GCGGUUUUUGCCAUUACUUUUCAUUUUUACCAUUAAAAGUAAUGGCAAAAAGCAU [hsa-mir-548q]', -0.112),
  ('GGGCAUUCCGGAUAGGCCGAGAAAGUGUUG [hsa-mir-6723]', 0.79),
  ('GCUGAAACACAGUUGGUUUGUGUACACUGGC [hsa-mir-24-2]', 0.212),
  ('CCCAGCCUUGGCGUUCAGGUGCUGAG [hsa-mir-3150b]', -0.3),
  ('CGAGUCUGAGCCUUUAAAAGCCACUCU [hsa-mir-1287]', -1.4),
  ('CUGGGUCCUCUGUGCAGGGUCUUACCCAG [hsa-mir-7850]', -0.833),
  ('GGAUCAUGUUUGCCCCCGUGGACAGCUCUCUGGUGUGCUCCUCCUGCCAUCCUGCCCACCCCUGCAUAAUGCUGCUUC [hsa-mir-6809]', -1.25),
  ('GUAUGAGUGCCACAGAGCCGUCAUAA [hsa-mir-9-3]', -0.99),
  ('UGUCAUUGAAAGUAAUAGCA [hsa-mir-548h-3]', -1.07),
  ('GUUCCUGUGAUUUUUC [hsa-mir-198]', -0.819),
  ('AGCUGUGUUUUCUGACUCAGUCAUAAU [hsa-mir-365b]', -0.674),
  ('GCCAGUGUUCAAGGGCCCCUCCUCUAGUACUCCCUGUUUGUGUUCUGCCACUGA [hsa-mir-6857]', -0.797),
  ('ACCAUAGUCAUAAGUUAGGAGAUGUUAGAGCUGUGAGU [hsa-mir-4286]', 0.233),
  ('GGUUGCUGGAGGUCAGC [hsa-mir-6871]', 0.0274),
  ('GAUCCGGGAACCCACAGCCCCGUUC [hsa-mir-6783]', 0.0468),
  ('GCUUGCUGUUCCUCUCAACAGUAGUCAGGAAGC [hsa-mir-129-1]', -0.381),
  ('CAGGAGUGGACACCUG [hsa-mir-1246]', -0.505),
  ('ACCUAACACACUGCCUUUUAUGUGGUAGGU [hsa-mir-5094]', -1.19),
  ('UUCAGAUUUUGGAACAUUUCGGAUUUUGGA [hsa-mir-1290]', 2.01),
  ('AUCAAGAAAAGAUUUGGUGUUCUUGAU [hsa-mir-4782]', 1.36),
  ('CUGCUUUUAAAGGUAAUGGCAA [hsa-mir-548ag-1]', -0.0258),
  ('UUUAGAAAAGAGAAUUCCAAA [hsa-mir-1252]', -1.48),
  ('AUGGUCUCUAUAUUUAUGAUGAUUAA [hsa-mir-889]', -0.798),
  ('AGUUACACAGCUCACGAGUGCCU [hsa-mir-370]', -0.352);
